- assay.summary: Intravenous and intraduodenal (bolus) bioavailability of zanamivir from Capmul MCM L8 25, 50, 75 µL (Example 7)
- condition.summary: male, Sprague-Dawley, rat, in vivo, 1.5 mg/animal, Plasma concentration, intraduodenal bolus, 75 μL Capmul MCM L8; 2.0 hr; rat 965

compound: CC(=O)NC1C(NC(=N)N)C=C(C(=O)O)OC1C(O)C(O)CO (stereo not shown) [Zanamivir]
concentration at 2 hr: 160 ng/mL

* * *

- assay.summary: Intraduodenal bioavailability of zanamivir from glycerol and PBS formulations, enhancer pre-dose (Example 6)
- condition.summary: male, Sprague-Dawley, rat, in vivo, 1.5 mg/animal, Plasma concentration, ID 1.5 mg/animal, 50 µL PBS, 50 µL blank Capmul MCM L8 -2 hr; 0.83 hr; mean

molecule: CC(=O)NC1C(NC(=N)N)C=C(C(=O)O)OC1C(O)C(O)CO (stereo not shown)
concentration at 0.83 hr / ng/mL: 10.8
